Ki for Rho-associated protein kinase 1 (Homo sapiens, UniProt Q13464) - collated from the literature.

Compound	Ki
Cc1c[nH]c2nccc(Oc3ccc(C[C@H](N)C(=O)NC4(C(N)=O)CCC4)cc3F)c12	< 3 nM
CN(C(=O)[C@@H](N)Cc1ccc(Oc2ccnc3[nH]ccc23)cc1)C1CCCCC1	3 to 30 nM
CN1C[C@@H]2C[C@H]1CN2C(=O)[C@@H](N)Cc1ccc(Oc2ccnc3[nH]cc(C#N)c23)c(F)c1	< 3 nM
CN(c1cccc(CC(=O)Nc2nc(-c3c[nH]c4ncccc34)cs2)c1)S(C)(=O)=O	< 500 nM
N#Cc1ccnc(-c2c[nH]c3ncc(Cl)cc23)c1	500 to 5000 nM
Fc1cnc(-c2c[nH]c3ncc(Cl)cc23)nc1NC1CCNC1 (stereo not drawn)	< 500 nM
CCN(CC)S(=O)(=O)c1cccc(CC(=O)Nc2nc(-c3c[nH]c4nccc(Cl)c34)cs2)c1	500 to 5000 nM
NC(C(=O)Nc1cc(-c2c[nH]c3nccc(Oc4ccc5c(c4)CNCC5)c23)ccn1)c1ccccc1 (stereo not drawn)	< 3 nM
Cc1c[nH]c2nccc(Oc3ccc(C[C@H](N)C(=O)N4CC5(CN(C)C5)C4)cc3F)c12	3 to 30 nM
